Tested on: HOP-92
assay.notes: NCI tumour cell line growth inhibition, 48 h
Active and inactive are the calls of the source. Rule as the data show it: active = GI50 up to about 1.1 µM and inactive = higher.
Possible outcomes: active, inactive

INSERT INTO assay_data (compound, class_assignment) VALUES
  ('CC(C)CCC(=O)c1ccoc1', 'inactive'),
  ('CC1[C@@H](OCc2ccccc2)COC(=O)N1Cc1ccccc1 (some centres undefined)', 'inactive'),
  ('Cc1c(/C=N/NC(=O)c2ccccc2)c(=O)n(-c2ccccc2)n1C', 'inactive'),
  ('COc1cccc2c1C(=O)c1c(O)c3c(c(O)c1C2=O)C[C@@](O)(C(C)O)C[C@@H]3OC1CC(N)C(O)C(C)O1 (some centres undefined)', 'active');
